- assayed-system: T1, hVEGF-A (8-109) (human, UniProt P15692 214-315)
- T1 construct: residue numbers count on mature VEGF-A; dimer
- T1 sequence (looked up): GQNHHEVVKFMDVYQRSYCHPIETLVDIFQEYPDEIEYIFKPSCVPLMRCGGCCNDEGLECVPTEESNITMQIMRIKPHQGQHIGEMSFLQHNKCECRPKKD
- protocol-details: spot phage ELISA
Label label 1 when S/N is at or above 10; anything below gets label 0.

[[record]]
binder = "GCHLFEPLWGCKQDSDCLAGCVCHWYQSCG (designed binder) [VEGF_CKP9.L1.2]"
group = "label 1"

[[record]]
binder = "GCQVMQPAWGCKQDSDCLAGCVCHWYQSCG (designed binder) [VEGF_CKP9.L1.8]"
group = "label 1"

[[record]]
binder = "GCQVMRPFWGCKQDSDCLAGCVCHWYQSCG (designed binder) [VEGF_CKP9.L1.7]"
group = "label 0"

[[record]]
binder = "GCQRTQPFWGCKQDSDCLAGCVCRWYQSCG (designed binder) [VEGF_CKP9.22]"
group = "label 1"

[[record]]
binder = "GCNIMLPFWGCGWDQFCLAGCVCQYYQSCG (designed binder) [VEGF_CKP9.54.51]"
group = "label 1"

[[record]]
binder = "GCDIMQPLWGCKQDSDCLAGCVCHWYQSCG (designed binder) [VEGF_CKP9.L1.68]"
group = "label 1"

[[record]]
binder = "GCQISQPFWGCKQDSDCLAGCVCHFYNSCG (designed binder) [VEGF_CKP9.3]"
group = "label 1"

[[record]]
binder = "GCKNPLFNWALYCKQDSDCLAGCVCQLFDSCG (designed binder) [VEGF_CKP7.8]"
group = "label 0"


Could you verify whether the entry GCLDPTVNWALFCKQDSDCLAGCVCQHYKTCG (designed binder) [VEGF_CKP7.81] shows S/N of no less than 10?
label 1

Could you verify whether the entry GCRDLDVKWDCKQDSDCLAGCFCQYYSSCG (designed binder) [VEGF_CKP10] shows S/N of no less than 10?
label 1

Could you verify whether the entry GCHRLQPLWGCKQDSDCLAGCVCHWYQSCG (designed binder) [VEGF_CKP9.L1.19] shows S/N of no less than 10?
label 1

Could you verify whether the entry GCQLMQPFWGCKQDSDCLAGCVCRWYHSCG (designed binder) [VEGF_CKP9.L5.43] shows S/N of no less than 10?
label 1

Could you verify whether the entry GCVTPWKPHWINCKQDSDCLAGCVCGPNGFCG (designed binder) [VEGF_CKP13] shows S/N of no less than 10?
label 1

The origin of these recorded values is patent US20230174596A1.
